# protein stability index values compiled below
B1: RHOBTB3 (parent)
chain: GGADIIVIKYNVNDKFSFHEVKDN

- Variants of: B1
- RUN_DESCRIPTION: protein stability index of a GFP-peptide fusion (GPS, HEK-293T) (PSI 1-6); higher = more stable;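 note: lentivirally expressed fusions sorted by FACS into six bins by GFP to DsRed ratio, PSI derived from sequencing read proportions per bin multiplied by bin number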
- SETUP_CONDITIONS: c terminus: a fixed tail appended
The answer should be a number; do not append a unit.

Some solved entries appear below for comparison.
changes=N13Q outcome_measure="protein stability index" numeric_value=3.3
changes=Y10E outcome_measure="protein stability index" numeric_value=2.29
changes=H19V outcome_measure="protein stability index" numeric_value=2.72

### Prompt Note down protein stability index recorded for "E20I"
### Response 2.61

### Prompt Check the records and state protein stability index for "I8R"
### Response 3.17

### Prompt Look up protein stability index of "I6A" and report it.
### Response 3.21
